From: patent US20240287154A1

MC3R selectivity (relative to MC4R) values for the compounds below.
# System Under Test: human MC4R (Homo sapiens, UniProt P32245)
# Sequence (P32245 whole entry): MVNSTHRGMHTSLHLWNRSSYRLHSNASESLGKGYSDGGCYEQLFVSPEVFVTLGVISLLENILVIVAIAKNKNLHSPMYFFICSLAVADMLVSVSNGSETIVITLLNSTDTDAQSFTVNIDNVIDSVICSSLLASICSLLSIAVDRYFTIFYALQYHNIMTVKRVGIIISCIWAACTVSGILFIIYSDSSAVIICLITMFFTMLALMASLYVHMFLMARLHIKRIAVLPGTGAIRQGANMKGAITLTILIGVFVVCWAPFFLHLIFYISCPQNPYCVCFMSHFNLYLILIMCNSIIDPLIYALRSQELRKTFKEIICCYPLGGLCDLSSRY
# Assay Comment: Intracellular cAMP levels in live cells, MC3R selectivity relative to MC4R
# Type: cell-based
# Condition Set: cAMP assays in human MC3R and human MC4R stable cell lines
Non-standard residues stand in square brackets, D forms with d. Residues, ends and D or L forms follow the SMILES beside them. Phe(4-I) = N[C@@H](Cc1ccc(I)cc1)C(=O)O; NMeH = CN[C@@H](Cc1c[nH]cn1)C(=O)O; Nle = CCCC[C@H](N)C(=O)O
Returns: the value as a bare number; no unit string appended.

Worked cases, answers included:
| Compound | System Under Test | Value Measured |
| --- | --- | --- |
| CCCC[C@H](NC(C)=O)C(=O)N[C@H](C)C(=O)N[C@@H](Cc1c[nH]cn1)C(=O)N[C@@H](Cc1ccccc1)C(=O)N[C@@H](CCCNC(=N)N)C(=O)N[C@H](Cc1c[nH]c2ccccc12)C(=O)N[C@H](Cc1ccccc1)C(=O)N[C@@H](CCCNC(=N)N)C(=O)N[C@@H](Cc1ccccc1)C(=O)NCC(=O)O [CTX-1531] (Ac-[Nle][dA]HFR[dW][dF]RFG-OH) | human MC4R (Homo sapiens, UniProt P32245) | 8 |
| CCCC[C@H](NC(=O)[C@@H](NC(=O)[C@H](N)Cc1ccc(O)cc1)C(C)C)C(=O)N[C@H](C)C(=O)N[C@@H](Cc1c[nH]cn1)C(=O)N[C@@H](Cc1ccc(I)cc1)C(=O)N[C@@H](CCCNC(=N)N)C(=O)N[C@H](Cc1c[nH]c2ccccc12)C(=O)N[C@@H](CC(=O)O)C(N)=O [CTX-1171] (H-[dY]V[Nle][dA]H[Phe(4-I)]R[dW]D-NH2) | human MC4R (Homo sapiens, UniProt P32245) | 234 |
| CCCC[C@H](NC(C)=O)C(=O)N[C@H](C)C(=O)N[C@@H](Cc1c[nH]cn1)C(=O)N[C@@H](Cc1ccccc1)C(=O)N[C@@H](CCCNC(=N)N)C(=O)N[C@H](Cc1c[nH]c2ccccc12)C(=O)N[C@@H](Cc1ccccc1)C(=O)N[C@@H](CCCNC(=N)N)C(=O)N[C@@H](Cc1ccccc1)C(=O)NCC(=O)O [CTX-1529] (Ac-[Nle][dA]HFR[dW]FRFG-OH) | human MC4R (Homo sapiens, UniProt P32245) | 82 |
| CCCC[C@H](NC(C)=O)C(=O)N[C@H](C)C(=O)N(C)[C@@H](Cc1c[nH]cn1)C(=O)N[C@@H](Cc1ccccc1)C(=O)N[C@@H](CCCNC(=N)N)C(=O)N[C@H](Cc1c[nH]c2ccccc12)C(=O)N[C@@H](CC(=O)O)C(=O)N[C@@H](CCCNC(=N)N)C(=O)N[C@@H](Cc1ccccc1)C(=O)NCC(=O)O [CTX-1186] (Ac-[Nle][dA][NMeH]FR[dW]DRFG-OH) | human MC4R (Homo sapiens, UniProt P32245) | 1884 |
| CCCC[C@H](NC(C)=O)C(=O)N[C@H](C)C(=O)N[C@@H](Cc1c[nH]cn1)C(=O)N[C@@H](Cc1ccccc1)C(=O)N[C@@H](CCCNC(=N)N)C(=O)N[C@H](Cc1c[nH]c2ccccc12)C(=O)NCC(=O)N[C@@H](CCCCN)C(=O)N1CCC[C@H]1C(=O)N[C@H](C(N)=O)C(C)C [CTX-1164] (Ac-[Nle][dA]HFR[dW]GKPV-NH2) | human MC4R (Homo sapiens, UniProt P32245) | 83 |

With those in mind, consider the next compound.
The measured MC3R selectivity (relative to MC4R) associated with CCCC[C@H](NC(=O)[C@@H](NC(=O)[C@@H](N)Cc1ccc(O)cc1)C(C)C)C(=O)N[C@H](Cc1ccccc1)C(=O)N[C@@H](Cc1c[nH]cn1)C(=O)N[C@@H](Cc1ccccc1)C(=O)N[C@@H](CCCNC(=N)N)C(=O)N[C@H](Cc1c[nH]c2ccccc12)C(=O)N[C@@H](CC(=O)O)C(=O)N[C@@H](CCCNC(=N)N)C(=O)N[C@@H](Cc1ccccc1)C(=O)NCC(=O)O [CTX-1136] (H-YV[Nle][dF]HFR[dW]DRFG-OH) reads 37
